# System: CAF#2 (primary prostate cancer-associated fibroblasts of iCAF-like type)
# assayComment: drug sensitivity score (DSS2, normalised partial AUC of dose-response, 72 h CellTiter-Glo viability) (DSS (dimensionless)); higher = more sensitive (stronger growth inhibition / cytotoxicity); extreme values may be limits of the assay
measuredEndpoint: drug sensitivity score

# drug sensitivity score measured on CAF#2 for item O=C1Cc2cc(C(=O)NC3C[C@H]4CC[C@@H](C3)N4S(=O)(=O)CC3CCN(CCCC(F)(F)F)CC3)c(Cl)cc2N1 (stereo not given in full) (tested concentration range 1-10000 nM) = 0

Entry O=C1c2c(O)ccc(O)c2C(=O)c2c(NCCNCCO)ccc(NCCNCCO)c21 [Mitoxantrone] (tested concentration range 0.1-1000 nM) , tested on CAF#2, has a reported drug sensitivity score of 8.9

Observed drug sensitivity score on CAF#2, entry COc1c(OCCCN2CCOCC2)ccc2c1N=C(NC(=O)c1cnc(N)nc1)N1CCN=C21 [Copanlisib] (tested concentration range 0.1-1000 nM) , equals 9.8

Bench note, CAF#2: entry CCCCC(=O)OCC(=O)[C@]1(O)Cc2c(O)c3c(c(O)c2[C@@H](O[C@H]2C[C@H](NC(=O)C(F)(F)F)[C@H](O)[C@H](C)O2)C1)C(=O)c1c(OC)cccc1C3=O [Valrubicin] (tested concentration range 0.5-5000 nM) , its drug sensitivity score = 9.3

Let me check: Nc1ncnc2c1nc(Cl)n2[C@@H]1O[C@H](CO)[C@@H](O)[C@H]1O [8-chloro-adenosine] (tested concentration range 5-50000 nM) , system CAF#2, measured drug sensitivity score is 8.4

Entry Nc1cccc2c1C(=O)N(C1CCC(=O)NC1=O)C2=O (stereo not given) [Pomalidomide] (tested concentration range 1-10000 nM) , tested on CAF#2, has a reported drug sensitivity score of 0

Simply: CC[C@]12C=CCN3CC[C@@]4(c5cc([C@@]6(C(=O)OC)C[C@@H]7C[C@@H](C(C)(F)F)CN(Cc8c6[nH]c6ccccc86)C7)c(OC)cc5N(C)[C@H]4[C@@](O)(C(=O)OC)[C@@H]1OC(C)=O)[C@@H]32 [Vinflunine] (tested concentration range 0.1-1000 nM) , CAF#2, drug sensitivity score = 0.9

Result for CC[C@@]1(O)C(=O)OCc2c1cc1n(c2=O)Cc2cc3c(CN(C)C)c(O)ccc3nc2-1 [Topotecan] (tested concentration range 1-10000 nM) , tested on CAF#2, drug sensitivity score: 10.3

The value of drug sensitivity score recorded for Cn1cncc1[C@@](N)(c1ccc(Cl)cc1)c1ccc2c(c1)c(-c1cccc(Cl)c1)cc(=O)n2C [Tipifarnib] (tested concentration range 1-10000 nM) when tested on CAF#2 reads 7.6

drug sensitivity score on CAF#2 for N#CC[C@H](C1CCCC1)n1cc(-c2ncnc3[nH]ccc23)cn1 [Ruxolitinib] (tested concentration range 1-10000 nM) is 0.8

====

# Tested on: CAF#7 (primary prostate cancer-associated fibroblasts of myCAF-like type)
# assayComment: drug sensitivity score (DSS2, normalised partial AUC of dose-response, 72 h CellTiter-Glo viability) (DSS (dimensionless)); higher = more sensitive (stronger growth inhibition / cytotoxicity); extreme values may be limits of the assay
Decide by drug sensitivity score: equal to or exceeding 2 means met, less means not met.

stdin: Check this compound for drug sensitivity score at or above 2: S=c1[nH]cnc2nc[nH]c12 [Mercaptopurine] (tested concentration range 1-10000 nM)
stdout: not met

stdin: Quick check, drug sensitivity score >= 2? O=C(Nc1nc2cccc(-c3ccc(CN4CCS(=O)(=O)CC4)cc3)n2n1)C1CC1 [Filgotinib] (tested concentration range 1-10000 nM)
stdout: not met

stdin: Assess whether reported drug sensitivity score for Nc1ncn([C@H]2C[C@H](O)[C@@H](CO)O2)c(=O)n1 [Decitabine] (tested concentration range 1-10000 nM) sits at 2 or higher.
stdout: not met

stdin: Assess whether reported drug sensitivity score for COC(=O)C[C@](O)(CCCC(C)(C)O)C(=O)O[C@@H]1C(OC)=C[C@]23CCCN2CCc2cc4c(cc2[C@H]13)OCO4 [Omacetaxine] (tested concentration range 1-10000 nM) sits at 2 or higher.
stdout: met

stdin: Reported drug sensitivity score reaches at least 2 for Cc1ccc(Nc2nccc(N(C)c3ccc4c(C)n(C)nc4c3)n2)cc1S(N)(=O)=O [Pazopanib] (tested concentration range 1-10000 nM) ?
stdout: met

Source: the supplement of paper PMC12592484
